This collection of values is drawn from ChEMBL document CHEMBL3232903.

test system: Hepatitis C virus isolate HC-J4; assay: Inhibition of RNA-dependent RNA polymerase activity of HCV genotype 1b HC-J4 recombinant N-terminal histidine tagged C-terminal 21 aminoacids truncated NS5B polymerase at 50 uM after 1 hr by standard primer dependent elongation assay
metricName: inhibition

QUERY: What value of inhibition on Hepatitis C virus isolate HC-J4 does CN1c2c(C(=O)Nc3ccc(NS(C)(=O)=O)cc3)nn(-c3ccc(C(F)(F)F)cc3)c2-c2ccccc2S1(=O)=O have?
RESULT: > 50%

QUERY: What value of inhibition on Hepatitis C virus isolate HC-J4 does COc1cccc(-n2nc(C(=O)Nc3ccc(NS(C)(=O)=O)cc3)c3c2-c2ccccc2S(=O)(=O)N3C)c1 have?
RESULT: < 50%

QUERY: What value of inhibition on Hepatitis C virus isolate HC-J4 does Cc1ccc(-n2nc(C(=O)Nc3ccc(NS(C)(=O)=O)cc3)c3c2-c2ccccc2S(=O)(=O)N3C)cc1 have?
RESULT: > 50%

QUERY: What value of inhibition on Hepatitis C virus isolate HC-J4 does CN1c2c(NC(=O)c3ccc(NS(C)(=O)=O)cc3)nn(-c3cccc(F)c3)c2-c2ccccc2S1(=O)=O have?
RESULT: < 50%

QUERY: What value of inhibition on Hepatitis C virus isolate HC-J4 does CN1c2c(C(=O)Nc3ccc(OCC(N)=O)cc3)nn(-c3cccc(F)c3)c2-c2ccccc2S1(=O)=O have?
RESULT: < 50%

Give one value of inhibition per listed molecule.
1. CN1c2c(C(=O)Nc3ccc(NS(C)(=O)=O)cc3)nn(-c3ccc(Br)cc3)c2-c2ccccc2S1(=O)=O
2. CN1c2c(C(=O)Nc3ccc(NS(C)(=O)=O)cc3)nn(-c3ccc(Cl)cc3)c2-c2ccccc2S1(=O)=O
3. CN1c2c(C(=O)Nc3ccc(NS(C)(=O)=O)cc3)nn(-c3cccc(Cl)c3)c2-c2ccccc2S1(=O)=O
4. CN1c2c(C(=O)Nc3ccc(NS(C)(=O)=O)cc3)nn(-c3ccc(Cl)c(C(F)(F)F)c3)c2-c2ccccc2S1(=O)=O
5. Cc1ccccc1-n1nc(C(=O)Nc2ccc(NS(C)(=O)=O)cc2)c2c1-c1ccccc1S(=O)(=O)N2C

RESULT:
1. > 50%
2. > 50%
3. > 50%
4. < 50%
5. > 50%
